Target: F508delCFTR (Homo sapiens, UniProt P13569, DEL508-508)
Construct: expressed in transfected cells; host or cells: CFBE41o- human lung-derived epithelial cells (CFBE4lo-F508delCFTR-HRP), doxycycline-inducible
Sequence (P13569 with tags, fused parts or gaps DEL508-508): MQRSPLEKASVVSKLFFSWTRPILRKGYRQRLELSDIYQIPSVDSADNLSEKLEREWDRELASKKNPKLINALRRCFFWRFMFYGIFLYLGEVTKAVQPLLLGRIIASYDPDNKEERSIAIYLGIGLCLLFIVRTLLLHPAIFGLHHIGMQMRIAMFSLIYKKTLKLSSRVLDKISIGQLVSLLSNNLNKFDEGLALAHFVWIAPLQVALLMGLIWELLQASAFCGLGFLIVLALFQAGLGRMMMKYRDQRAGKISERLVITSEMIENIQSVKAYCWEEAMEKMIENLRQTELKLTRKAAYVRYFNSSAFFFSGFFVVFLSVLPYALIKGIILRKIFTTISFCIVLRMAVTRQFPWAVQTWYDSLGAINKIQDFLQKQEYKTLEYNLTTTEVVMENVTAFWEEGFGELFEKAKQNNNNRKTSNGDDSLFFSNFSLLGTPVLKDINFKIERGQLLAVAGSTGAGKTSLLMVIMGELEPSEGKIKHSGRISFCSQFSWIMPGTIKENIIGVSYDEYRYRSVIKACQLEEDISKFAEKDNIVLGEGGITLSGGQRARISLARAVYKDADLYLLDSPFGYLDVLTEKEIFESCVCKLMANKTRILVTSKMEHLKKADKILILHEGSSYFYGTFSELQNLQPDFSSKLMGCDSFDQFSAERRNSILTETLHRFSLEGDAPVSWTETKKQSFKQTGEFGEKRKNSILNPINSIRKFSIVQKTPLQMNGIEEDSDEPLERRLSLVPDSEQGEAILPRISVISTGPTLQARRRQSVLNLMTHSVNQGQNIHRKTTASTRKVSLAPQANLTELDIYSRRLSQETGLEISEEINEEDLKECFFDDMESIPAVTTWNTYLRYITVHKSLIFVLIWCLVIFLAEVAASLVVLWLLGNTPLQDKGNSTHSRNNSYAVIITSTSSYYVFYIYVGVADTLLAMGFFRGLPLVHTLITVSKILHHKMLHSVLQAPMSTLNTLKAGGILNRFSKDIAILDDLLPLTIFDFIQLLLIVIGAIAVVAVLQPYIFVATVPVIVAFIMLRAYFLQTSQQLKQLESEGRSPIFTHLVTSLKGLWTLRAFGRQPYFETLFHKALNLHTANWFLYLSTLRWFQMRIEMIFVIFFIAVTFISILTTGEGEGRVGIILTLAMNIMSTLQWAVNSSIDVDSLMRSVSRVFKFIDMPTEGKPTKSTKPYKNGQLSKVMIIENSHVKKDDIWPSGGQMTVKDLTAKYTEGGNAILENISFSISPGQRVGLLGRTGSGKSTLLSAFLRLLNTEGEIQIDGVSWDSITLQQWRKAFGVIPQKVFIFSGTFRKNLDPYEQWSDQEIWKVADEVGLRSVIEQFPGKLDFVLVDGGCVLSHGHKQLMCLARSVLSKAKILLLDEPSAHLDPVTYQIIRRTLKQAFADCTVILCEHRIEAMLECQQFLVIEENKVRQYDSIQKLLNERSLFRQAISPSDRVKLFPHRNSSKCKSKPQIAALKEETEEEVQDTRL
Experiment: Cell Surface Expression-Horse Radish Peroxidase (CSE-HRP) Assay
Format: cell-based
Conditions: with co-corrector (2 μM of 3-[(2R,4R)-4-({[1-(2,2-difluoro-1,3-benzodioxol-5-yl)cyclopropyl]carbonyl}amino)-7-methoxy-3,4-dihydro-2H-chromen-2-yl]benzoic acid); read-out: EC50 (with co-corrector)
For each of the molecules below, state its EC50.

COc1ccc(C(C)(C)C)cc1CN[C@H]1[C@H](C(C)(C)C)[C@@H](C(=O)O)N(C(=O)C2COc3ccccc3O2)[C@H]1c1cccnc1N(C)C (single isomer, unassigned) [II-472] ... 1 to 10 µM
COc1ncc(C2CCC2)cc1CN[C@H]1[C@H](C(C)(C)C)[C@@H](C(=O)O)N(C(=O)c2ccc3c(c2)OCCO3)[C@H]1c1ccccc1 ... 1 to 10 µM

Kindly note the recorded EC50 for COc1ccc(C(F)(F)F)cc1CN[C@H]1[C@H](C(C)(C)C)[C@@H](C(=O)O)N(C(=O)OC(C)C)[C@H]1c1ccccc1 , which is 1 to 10 µM

----------
Would you kindly list pEC50 for each of these compounds?
Biological target: F508delCFTR (Homo sapiens, UniProt P13569, DEL508-508)
Construct: expressed in transfected cells; host or cells: CFBE41o- human lung-derived epithelial cells (CFBE4lo-F508delCFTR-HRP), doxycycline-inducible
Experiment: Cell Surface Expression-Horse Radish Peroxidase (CSE-HRP) Assay
Type: cell-based
Conditions: test compound without co-corrector; read-out: EC50 (without co-corrector)
pEC50: −log10 of the molar value.

Use the examples below as a reference point.
Cc1cc(C(F)(F)F)cc(N[C@H]2[C@H](C(C)(C)C)[C@@H](C(=O)O)N(C(=O)C3C4CCCC43)[C@H]2c2cccnc2N(C)C)n1 (some centres unmarked) [Example I-222] ... 5.00 to 6.00
COc1cc(C(F)(F)F)ccc1CN[C@H]1[C@H](C(C)(C)C)[C@@H](C(=O)O)N(C(=O)[C@@H]2CCCO2)[C@H]1c1cccnc1C1CC1 [II-587] ... 5.00 to 6.00
COc1ncc(C2CCC2)cc1CN[C@H]1[C@H](C(C)(C)C)[C@@H](C(=O)O)N(C(=O)C2CCCCC2)[C@H]1c1ccccc1C(C)C [Example 117] ... > 6.00
COc1ccc(C(C)(C)C)cc1CN[C@H]1[C@H](C(C)(C)C)[C@@H](C(=O)O)N(C(=O)C2CC(F)C2)[C@H]1c1ccccc1 (some centres unmarked) [II-335] ... 5.00 to 6.00
COc1ncc(C(F)(F)F)cc1CN[C@H]1[C@H](C(C)(C)C)[C@@H](C(=O)O)N(C(=O)[C@@H]2CCCC(F)(F)C2)[C@H]1c1cccnc1OC [II-572] ... 5.00 to 6.00
COc1ccc(Cl)cc1CN[C@@H]1[C@@H](C(C)(C)C)[C@H](C(=O)O)N(C(=O)C2CCCCC2)[C@@H]1c1cccnc1N(C)C (racemic) [III-94] ... 5.00 to 6.00
COc1ccc(C2(C(F)(F)F)CC2)cc1CN[C@H]1[C@H](C(C)(C)C)[C@@H](C(=O)O)N(C(=O)C2Cc3ccccc3O2)[C@H]1c1cccnc1N(C)C (single isomer, unassigned) [Example I-175] ... > 6.00
COc1ccc(C(F)(F)F)cc1CN[C@@H]1[C@@H](C(C)(C)C)[C@H](C(=O)O)N(C(=O)C(C)Oc2ccccc2)[C@@H]1c1ccccc1 (relative stereo) [Example I-32] ... 5.00 to 6.00

Please report pEC50 for every entry that follows.
1. CC(C)(C)[C@@H]1[C@@H](NCc2cc(C(F)(F)F)ccc2OCCOC(F)(F)F)[C@@H](c2ccccc2)N(C(=O)C2CCCCC2)[C@H]1C(=O)O (racemic) [III-86]
2. COCCOc1cnc(Cl)cc1CN[C@@H]1[C@@H](C(C)(C)C)[C@H](C(=O)O)N(C(=O)C2CCCCC2)[C@@H]1c1ccccc1 (racemic) [III-72]
3. COc1ccc(C(C)(C)C)cc1CN[C@H]1[C@H](C23CC(C2)C3)[C@@H](C(=O)O)N(C(=O)OC(C)C)[C@H]1c1cccnc1OC [Example 76]
4. CC(C)(C)[C@@H]1[C@@H](NCc2cc(Cl)ncc2O)[C@@H](c2ccccc2)N(C(=O)C2CCCCC2)[C@H]1C(=O)O (racemic) [III-73]
5. COc1ccc(C(C)(C)C)cc1CN[C@H]1[C@H](C(C)(C)C)[C@@H](C(=O)O)N(C(=O)C2Cc3ccccc3O2)[C@H]1c1ccccc1 (single isomer, unassigned) [Example 28]

1: < 5.00; 2: < 5.00; 3: 5.00 to 6.00; 4: < 5.00; 5: > 6.00

I have 6 compounds here; please give me pEC50 for each one.
1. Cc1cc(C(F)(F)F)cc(N[C@H]2C(c3ccccc3)N(C(=O)N(C(C)C)C(C)C)[C@@H](C(=O)O)[C@@H]2C2CC2)n1 (mixture of isomers) [III-47]
2. COc1ccc(C(C)(C)C)cc1N[C@H]1[C@H](C(C)(C)C)[C@@H](C(=O)O)N(C(=O)C2CCCCC2)[C@H]1c1ccccc1 [Example I-82]
3. CC(C)OC(=O)N1[C@H](C(=O)O)[C@@H](C(C)(C)C)[C@H](NCC2CCCN(C(=O)OCc3ccccc3)C2)[C@@H]1c1ccccc1 (some centres unmarked) [II-583]
4. COc1ccc(C(C)(C)C)cc1CN[C@H]1[C@H](C(C)(C)C)[C@@H](C(=O)O)N(C(=O)C2CCc3ccccc3C2)[C@H]1c1ccccc1 (some centres unmarked) [III-191]
5. COc1nc(C(C)(C)C)ccc1CN[C@H]1[C@H](C(C)(C)C)[C@@H](C(=O)O)N(C(=O)C2CCCC(OC)C2)[C@H]1c1ccccc1 (some centres unmarked) [Example I-197]
6. CC(C)(C)[C@H]1[C@H](Nc2ccc(C3(C#N)CC3)cn2)[C@H](c2ccccc2)N(C(=O)C2CCCCC2)[C@@H]1C(=O)O [III-159]

1: 5.00 to 6.00; 2: 5.00 to 6.00; 3: 5.00 to 6.00; 4: > 6.00; 5: 5.00 to 6.00; 6: < 5.00

Provide pEC50 for all items below, preserving their order.
1. COc1nc(C(C)(C)C)ncc1CN[C@H]1[C@H](C(C)(C)C)[C@@H](C(=O)O)N(C(=O)C2CCCCC2)[C@H]1c1ccccc1 [Example I-207]
2. Cc1cc(C(F)(F)F)cc(N[C@H]2[C@H](C(C)(C)C)[C@@H](C(=O)O)N(C(=O)[C@H]3CCCCO3)[C@H]2c2cccnc2N(C)C)n1 [III-216]
3. COc1ccc(C(C)(C)C)cc1CN[C@H]1[C@H](C(C)(C)C)[C@@H](C(=O)O)N(C(=O)[C@H](C)[C@H]2CCCCO2)[C@H]1c1ccccc1 (relative stereo) [Example I-196]
4. COc1ccc(C(C)(C)C)cc1CN[C@H]1[C@H](C(C)(C)C)[C@@H](C(=O)O)N(C(=O)OC(C)C)[C@H]1c1cccnc1N(C)C [Example 66]

1. 5.00 to 6.00
2. 5.00 to 6.00
3. 5.00 to 6.00
4. 5.00 to 6.00
